A collection of binders and their measured Kd
# measurementTarget: T1, human FOLR1 recombinant protein (extracellular domain of human folate receptor alpha) (human, UniProt P15328 25-233)
# T1 construct: Bought recombinant protein (Sino Biological); also called hFOLR1; FR-alpha
# T1 sequence (P15328 25-233): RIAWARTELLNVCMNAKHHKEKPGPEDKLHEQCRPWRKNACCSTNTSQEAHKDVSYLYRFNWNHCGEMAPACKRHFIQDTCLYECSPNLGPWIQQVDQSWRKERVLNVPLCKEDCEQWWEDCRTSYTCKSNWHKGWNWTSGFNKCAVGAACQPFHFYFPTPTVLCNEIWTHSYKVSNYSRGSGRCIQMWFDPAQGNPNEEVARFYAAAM
# testMethodNotes: SPR (Biacore T200), human FOLR1 immobilized on CM5, His6-tagged VHH as analyte, 1:1 fit
// units = nM; emit number, no label

Use these answered entries as a reference point.
1) His6-tagged variant of VHH A5 (VHH, Purified, unlabelled; also called A5 His6-tag) VHH: DVQLVESGGGLVQAGGSLRLSCGVSGNIFSMNLMGWYRQPPGKEREWVALITKDGSTNYEDSVKGRFTISRDNAKNTVSLQMNSLKPEDTAVYYCNAQDGSGWIRAWGWDWGQGTQVTVSS = 14
2) His6-tagged variant of VHH A3 (VHH, Purified, unlabelled; also called A3 His6-tag) VHH: DVQLVESGGGLVQAGGSLRLSCGVSGNMFSMNLMGWYRQPPGKERDWVAVITKDGSTNYADSVKGRFTISRDNAKNTVSLQMNSLKPEDTAVYYCNVQDGSGWIRAWGWDWGQGTQVTVSS = 0.92
3) His6-tagged variant of VHH A2 (VHH, Purified, unlabelled; also called A2 His6-tag) VHH: DVQLVESGGGLVQAGGSLRLSCAADEMKFSNYDLAWYRRAPGKQRELAAIITSGGSTNYPDSVKGRFTISRDNAKNTVYLEMNSLKPEDTAVYYCNALRPWPQFSDYWGQGTQVTVSS = 0.24
4) His6-tagged variant of VHH A4 (VHH, Purified, unlabelled; also called A4 His6-tag) VHH: DVQLVESGGGLARAGGSLRLSCAASGRAFSSTYAMGWFRQAPGKEREFVADINWSEGSPMYIDSVKDRFTISRDNARNSLYLQMNSLKSEDTAVYYCAARRFGQGYEYWGQGTQVTVSS = 4.3

Prompt: What value of Kd has been reported for the following binder? His6-tagged variant of VHH A1 (VHH, Purified, unlabelled; also called A1 His6-tag) VHH: DVQLVESGGGLVQPGGSLRLSCAASESIFSRNHMSWYRQAPGKQRELAAIITSDGNTNYPDSVKGRFTISRDNAKNTVYLQMNSLKPEDTAVYYCNTFGRSVAGFYDYWGQGTQVTVSS
Completion: 0.04
